The values you see were collected from the supplement of paper PMC10567573.

Recorded protein stability index values for a group of variants are listed next.
B1: NEK8 (parent)
chain: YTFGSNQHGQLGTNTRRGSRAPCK

- Variants of: B1
- Procedure Text: protein stability index of a GFP-peptide fusion (GPS, HEK-293T) (PSI 1-6); higher = more stable;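 also: lentivirally expressed fusions sorted by FACS into six bins by GFP to DsRed ratio, PSI derived from sequencing read proportions per bin multiplied by bin number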
- Condition Notes: c terminus: a fixed tail appended
Answer with a number only.

In the examples that follow, each entry is paired with its recorded protein stability index.
L11M : 4.01
R17L : 3.92
R16Q : 3.97
H8Q : 3.92
N14D : 4.35

Could you now look at the following variant, please?
Exercise: Please look at this variant and report its protein stability index: T2Q
Solution: 3.5
